tested on: Yap1 mRNA; assay: Antisense inhibition of human Yap1 in SNU-449 cells by modified oligonucleotides, single dose (Example 5, RTS36584); format: cell-based; details: Table 40 (separate experiment); SNU-449 cells, 10,000 cells per well, free uptake, 2,000 nM oligonucleotide, approx. 48 hours; RTS36584; normalized to RIBOGREEN; Yap1 mRNA relative to untreated control
Strand notation (5' to 3'): a small letter for the sugar, then the base; units joined by * are phosphorothioate-linked, units joined directly phosphodiester-linked; [ ] holds rarer units or linkages, { } end groups; capitals alone tell only the bases. e = 2'-O-(2-methoxyethyl) (MOE); k = constrained ethyl (cEt); [5mC] = 5-methylcytosine; d = 2'-deoxy (DNA)
Binary call on YAP1 (% UTC): satisfied from 30 % UTC upward, not satisfied beneath that.

Is YAP1 (% UTC) for 1198799 (antisense k[5mC]*eT*kA*dA*dG*dT*dA*dA*dG*dG*dT*dT*eT*e[5mC]*k[5mC]*k[5mC]) [Compound 1198799] at or above 30 % UTC? not satisfied

Is YAP1 (% UTC) for 1198727 (kA*eT*kT*dA*dG*dA*dG*dT*dA*dT*dG*dT*eG*eG*k[5mC]*kA; antisense) [Compound 1198727] at or above 30 % UTC? not satisfied

Is YAP1 (% UTC) for 1198729 (kA*eT*kA*dT*dT*dA*dG*dA*dG*dT*dA*dT*eG*eT*kG*kG; antisense) [Compound 1198729] at or above 30 % UTC? not satisfied

Is YAP1 (% UTC) for 1198798 (antisense kT*eA*kA*dG*dT*dA*dA*dG*dG*dT*dT*dT*e[5mC]*e[5mC]*k[5mC]*kA) [Compound 1198798] at or above 30 % UTC? satisfied

Is YAP1 (% UTC) for 1198745 (k[5mC]*eA*k[5mC]*dT*dT*dT*dT*dA*d[5mC]*dA*dT*dT*eA*eG*kG*kA; antisense) [Compound 1198745] at or above 30 % UTC? satisfied

Is YAP1 (% UTC) for 1198722 (kA*eT*kA*dT*dG*dG*dA*dA*dA*dT*dT*dG*eT*e[5mC]*kT*k[5mC]; antisense) [Compound 1198722] at or above 30 % UTC? satisfied

Is YAP1 (% UTC) for 1198796 (antisense kA*eG*kT*dA*dA*dG*dG*dT*dT*dT*d[5mC]*d[5mC]*e[5mC]*eA*kG*kA) [Compound 1198796] at or above 30 % UTC? satisfied

Is YAP1 (% UTC) for 1198764 (kA*eG*kA*dT*dT*dT*dA*dG*dG*dA*dT*dG*e[5mC]*eA*kT*kG; antisense) [Compound 1198764] at or above 30 % UTC? not satisfied

Is YAP1 (% UTC) for 1198742 (kT*eT*kT*dT*dA*d[5mC]*dA*dT*dT*dA*dG*dG*eA*eA*k[5mC]*kA; antisense) [Compound 1198742] at or above 30 % UTC? satisfied

Is YAP1 (% UTC) for 1198797 (antisense kA*eA*kG*dT*dA*dA*dG*dG*dT*dT*dT*d[5mC]*e[5mC]*e[5mC]*kA*kG) [Compound 1198797] at or above 30 % UTC? satisfied

Is YAP1 (% UTC) for 1198425 (kA*d[5mC]*dT*d[5mC]*dT*dT*dA*dT*dA*dT*dG*kG*eT*kT*eT*kT; antisense) [Compound 1198425] at or above 30 % UTC? satisfied

Is YAP1 (% UTC) for 715487 (antisense kA*kT*kT*dA*d[5mC]*dT*dT*d[5mC]*dA*dT*dA*dG*d[5mC]*kT*kT*kA) [Compound 715487] at or above 30 % UTC? not satisfied

Is YAP1 (% UTC) for 1198760 (kT*eT*kA*dG*dG*dA*dT*dG*d[5mC]*dA*dT*dG*eG*eT*kT*kT; antisense) [Compound 1198760] at or above 30 % UTC? satisfied
